- experiment: Solubility of DN49 in various solvents
- Type: physicochemical
- study conditions: Tetrahydrofuran, organic solvent or mixture
measurement type: solubility

IN: I have this molecule here, O=C1c2ccccc2-n2c1nc1ncccc1c2=O , and I need its recorded solubility.
OUT: < 25 mg/mL

---

- experiment: Solubility of DN49 in various solvents
- Format: physicochemical
- study conditions: N-methylpiperidine, organic solvent or mixture
- Method: The solubility of DN49 (WR288510) was tested in various solvents to determine the properties encouraging solubility. […] An N—H group on an aromatic compound might be forming a complex with tryptanthrin. […] (200 mM) concentration in a solvent. The temperature is a close approximation to the temperature required to achieve solubility. Color is the color of the solution; DN49 is a yellow compound and colors other than yellow indicate close interaction between solvent and solute. […]
measurement type: solubility

IN: I have this compound here, O=C1c2ccccc2-n2c1nc1ncccc1c2=O [DN49] , and I need its recorded solubility.
OUT: < 25 mg/mL
